# Tested on: A549-CANX-COX4
# test.protocol: phenotypically active (imaging signature differs from DMSO and reproducible) at any of 0.3-9 uM (binary (1 = active, 0 = inactive)); higher = active
# applied.conditions: treatment time: 24 h
Structures can show the parent of a compound that is named as a salt.
measurement.kind: phenotypically active

Please review the entries below; each comes with its answer.
[[record]]
compound = "C[C@@H]1O[C@H](C[N+](C)(C)C)C[C@H]1O [(+)-Muscarine iodide]"
measured_on = "A549-CANX-COX4"
result = "0 (inactive)"

[[record]]
compound = "C=C1C/C(=C\\C)C(=O)O[C@@H]2CCN3CC=C(COC(=O)[C@]1(C)O)[C@H]23"
measured_on = "A549-CANX-COX4"
result = "0 (inactive)"

[[record]]
compound = "Cc1sc2c(c1C)C(c1ccc(Cl)cc1)=N[C@@H](CC(=O)OC(C)(C)C)c1nnc(C)n1-2"
measured_on = "A549-CANX-COX4"
result = "1 (active)"

[[record]]
compound = "C[C@@H](N)[C@@H](O)c1ccccc1"
measured_on = "A549-CANX-COX4"
result = "0 (inactive)"

[[record]]
compound = "COc1cc2c3cc1Oc1cc(ccc1O)C[C@@H]1c4c(cc(OC)c(O)c4Oc4cccc(c4)C[C@@H]3N(C)CC2)CC[N+]1(C)C [Tubocurarine chloride pentahydrate (+)]"
measured_on = "A549-CANX-COX4"
result = "0 (inactive)"

[[record]]
compound = "COc1ccc2c3c1O[C@H]1C(=O)CC[C@H]4[C@@H](C2)N(C)CC[C@]314 [hydrocodone]"
measured_on = "A549-CANX-COX4"
result = "0 (inactive)"

[[record]]
compound = "CC(C)[C@H]1C(=O)O[C@@H]2CCN3CC=C(COC(=O)[C@](C)(O)[C@@]1(C)O)[C@H]23"
measured_on = "A549-CANX-COX4"
result = "0 (inactive)"

[[record]]
compound = "C/C=C1/C[N+]2(C)CC[C@]34C(=C(C=O)[C@H]1C[C@@H]32)Nc1ccccc14 (stereo not given in full) [Fluorocurarine chloride]"
measured_on = "A549-CANX-COX4"
result = "0 (inactive)"

[[record]]
compound = "CN1C[C@H](C(=O)N[C@]2(C)O[C@@]3(O)[C@@H]4CCCN4C(=O)[C@H](Cc4ccccc4)N3C2=O)C[C@@H]2c3cccc4[nH]cc(c34)C[C@H]21.CN1C[C@H](C(=O)N[C@]2(C)O[C@@]3(O)[C@@H]4CCCN4C(=O)[C@H](Cc4ccccc4)N3C2=O)C[C@@H]2c3cccc4[nH]cc(c34)C[C@H]21 [dihydroergotamine]"
measured_on = "A549-CANX-COX4"
result = "0 (inactive)"

[[record]]
compound = "C[C@H]1O[C@@H](O[C@H]2[C@@H](O)C[C@H](O[C@H]3[C@@H](O)C[C@H](O[C@H]4CC[C@@]5(C)[C@H](CC[C@@H]6[C@@H]5CC[C@]5(C)[C@@H](C7=CC(=O)OC7)[C@@H](O)C[C@]65O)C4)O[C@@H]3C)O[C@@H]2C)C[C@H](O)[C@@H]1O"
measured_on = "A549-CANX-COX4"
result = "1 (active)"


Check the records and state phenotypically active for O=c1[nH]c2ccccc2n1C1CCN(CCCC(c2ccc(F)cc2)c2ccc(F)cc2)CC1 [pimozide]
0 (inactive)

Indicate the recorded phenotypically active value for this compound: CC1=CC(=O)C2=C(C)C[C@H](O)[C@@H]3[C@H](OC(=O)[C@H]3C)[C@@H]12 [Austricine hydrate]
0 (inactive)

Determine from records and report phenotypically active for C[C@@H]1NCCc2cc(O)c(O)cc21 [Salsolinol hydrobromide]
0 (inactive)

Using the record for O=C(Nc1ccncc1)C(=O)c1cn(Cc2ccc(Cl)cc2)c2ccccc12 , state its measured phenotypically active.
0 (inactive)

Query phenotypically active for O=C1C=C2C=C[C@@H]3C[C@@]2(O1)[C@H]1CCCCN31
0 (inactive)

Output phenotypically active of O=C1NC(=O)c2c1c1c3ccccc3n3c1c1c2c2ccccc2n1C1CCC3O1
0 (inactive)

Return the recorded phenotypically active value; entry: C/C=C(/C)C(=O)O[C@H]1CC[C@@]2(C)[C@@H]3CC[C@H]4[C@]5(O)C[C@H](O)[C@@]6(O)[C@@H](CN7C[C@@H](C)CC[C@H]7[C@@]6(C)O)[C@]5(O)C[C@@]42O[C@]13O
0 (inactive)

For C[C@@]1(CO)[C@H](O)CC[C@@]2(C)[C@H]1CC[C@H]1C[C@@H]3C[C@@]12CC[C@]3(O)CO , write its phenotypically active.
1 (active)

###

# Tested on: HepG2-TP53BP1-CLTA
# test.protocol: phenotypically active (imaging signature differs from DMSO and reproducible) at any of 0.3-9 uM (binary (1 = active, 0 = inactive)); higher = active
# applied.conditions: treatment time: 24 h
Structures can show the parent of a compound that is named as a salt.
Reported phenotypically active values for the following molecules.
Keep the answer to the number alone.

[[record]]
molecule = "C[C@@H](CO)NC(=O)[C@@H]1C=C2c3cccc4[nH]cc(c34)C[C@H]2N(C)C1 [Ergobasine]"
number = 0

[[record]]
molecule = "CC[C@@H](CO)NC(=O)[C@@H]1C=C2c3cccc4c3c(cn4C)C[C@H]2N(C)C1 [methysergide]"
number = 0

[[record]]
molecule = "CN1C(=O)CN=C(c2ccccc2)c2cc(Cl)ccc21 [diazepam]"
number = 0

[[record]]
molecule = "CNCC(O)c1ccc(O)c(OC)c1 (stereo not drawn) [Metanephrine hydrochloride DL]"
number = 0

[[record]]
molecule = "CC[C@H]1CN2CC[C@H]1C[C@@H]2[C@@H](O)c1ccnc2ccc(OC)cc12 [Hydroquinidine HCl]"
number = 0


Name the recorded phenotypically active of the molecule listed here: O=C(Nc1ccncc1)C(=O)c1cn(Cc2ccc(Cl)cc2)c2ccccc12 [Indibulin]
1

Return phenotypically active (reported value) for this molecule: CCCN1CCC[C@@H]2Cc3n[nH]cc3C[C@H]21 [(-)-Quinpirole hydrochloride]
0

Look up phenotypically active of C[C@]1(C(=O)O)CCC[C@]2(C)c3cc(O)ccc3CC[C@@H]12 [Podocarpic acid] and report it.
0

# return recorded phenotypically active for input CCC(=O)O[C@](Cc1ccccc1)(c1ccccc1)[C@H](C)CN(C)C [propoxyphene]
0

Quote phenotypically active reported for Cc1c(C(=O)Nc2cccc(C(F)(F)F)c2)cc(-c2ccccc2)n1CCCN1CCOCC1 please.
0

Provide only the value of recorded phenotypically active for C[C@]12CC[C@H]3[C@@H](CCC4=CC(=O)CC[C@@]43C)[C@@H]1CC[C@@H]2O [testosterone]
0

State, in one line, measured phenotypically active of C[C@H]1CCCC=C[C@@H]2C[C@H](O)C[C@H]2[C@H](O)C=CC(=O)O1 [brefeldin-a]
1

Look up phenotypically active of O=C(NCCN1CCC2(CC1)C(=O)NCN2c1cccc(F)c1)c1ccc(F)c(F)c1 [ML 298 hydrochloride] and report it.
1

###

# Tested on: HepG2-TP53BP1-CLTA
# test.protocol: phenotypically active (imaging signature differs from DMSO and reproducible) at any of 0.3-9 uM (binary (1 = active, 0 = inactive)); higher = active
# applied.conditions: treatment time: 24 h
Where a name gives a salt, the structure may show the parent alone.
measurement.kind: phenotypically active
Form field (numeric): enter value without unit.

Solved entries:
[[record]]
compound = "CCN(C(C)=O)c1cccc(-c2ccnc3c(C#N)cnn23)c1"
measurement_kind = "phenotypically active"
number = 0

[[record]]
compound = "COc1ccc(C(=O)Cc2c(CCN(C)C)cc3c(c2OC)OCO3)c(C(=O)O)c1OC"
measurement_kind = "phenotypically active"
number = 0

[[record]]
compound = "C[C@@H]1CC[C@H]2[C@@H](C)C(=O)O[C@@H]3O[C@@]4(C)CC[C@@H]1[C@]32OO4"
measurement_kind = "phenotypically active"
number = 1


Now look at this one.
Give me measured phenotypically active, please, for this compound: CN1C(CC(O)c2ccccc2)CCCC1CC(O)c1ccccc1 (centres undefined) [Lobelanidine hydrochloride]
0

###

# Test system: WPMY1-CANX-COX4
# test.protocol: lowest phenotypically active concentration; higher = less potent
# applied.conditions: treatment time: 24 h
Where a name gives a salt, the structure may show the parent alone.
lowest phenotypically active concentration listing for selected compounds.
Response body: numeric value in µM, unit text excluded.

[[record]]
compound = "O=C(NCCN1CCC2(CC1)C(=O)NCN2c1cccc(F)c1)c1ccc(F)c(F)c1 [ML 298 hydrochloride]"
measured_on = "WPMY1-CANX-COX4"
number = 9

[[record]]
compound = "O=C(Nc1ccncc1)C(=O)c1cn(Cc2ccc(Cl)cc2)c2ccccc12 [Indibulin]"
measured_on = "WPMY1-CANX-COX4"
number = 3

[[record]]
compound = "Cc1c(C(=O)c2cccc3ccccc23)c2cccc3c2n1[C@H](CN1CCOCC1)CO3 [WIN 55,212-2 mesylate]"
measured_on = "WPMY1-CANX-COX4"
number = 9


Turning now to a further record.
Report measured lowest phenotypically active concentration; entry is CN1C[C@H](C(=O)N[C@]2(C)O[C@@]3(O)[C@@H]4CCCN4C(=O)[C@H](Cc4ccccc4)N3C2=O)C=C2c3cccc4[nH]cc(c34)C[C@H]21 [ergotamine]
3

Origin of measurements: the supplement of paper PMC7411054
